Observed AC50, system Sodium-dependent dopamine transporter (Homo sapiens, UniProt Q01959). Also: assay procedure not described here.

compound	AC50
C[C@]12CC[C@H]3[C@@H](CCC4=CC(=O)CC[C@@]43C)[C@@H]1CC[C@@H]2O [TESTOSTERONE]	> 10 µM

Ask: Write down AC50 measured for item CCOc1ccc(Cc2cc([C@@H]3O[C@H](CO)[C@@H](O)[C@H](O)[C@H]3O)ccc2Cl)cc1 [DAPAGLIFLOZIN]
Reply: > 30 µM

Ask: Recall and state the measured AC50 for Nc1nc(/C(=C/CC(=O)O)C(=O)N[C@@H]2C(=O)N3C(C(=O)O)=CCS[C@H]23)cs1 [CEFTIBUTEN] .
Reply: > 30 µM
